Source listed as PubChem BioAssay (NCI).

- EXPERIMENTAL_PROTOCOL: NCI Yeast Anticancer Drug Screen. Data for the rad50 strain (AID 155);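 note: 0% = growth of vehicle-only cultures of the same strain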
- SETTINGS: S. cerevisiae rad50 strain growth inhibition; at 50.0 µM
This is part of a sample that, as a whole, favours compounds with a hit. Of some 79,000 tested, about 15% had one in any assay. Calls of active or inactive are those of the source. Cut-off read from the data, not from the text of the source: active = growth inhibition above about 70%; inactive = the rest.
Outcomes you can answer with include only these: active, inactive

Reference set (3 entries):
O=C(CC(CC(=O)Oc1c(Br)cc(Br)cc1C(=O)O)C(=O)Oc1c(Br)cc(Br)cc1C(=O)O)Oc1c(Br)cc(Br)cc1C(=O)O ... inactive
O=[N+]([O-])c1nc(-[n+]2ccccc2)[n-]c1Br ... inactive
CCC1CC/C(=N\Nc2ccc([N+](=O)[O-])cc2[N+](=O)[O-])c2ccc3c(C)ccc(C)c3c21 (centres undefined) ... inactive

### Prompt Query: recorded result category for Cc1cccc2c1C(=O)C1(Cc3ccccc3C1=O)C2 (centres undefined) in this test
### Response inactive

### Prompt Do the same for `c1ccc(C2=C(c3ccccc3)CSSC2)cc1` please
### Response inactive

### Prompt Do the same for `CC(=O)Oc1cc(C=O)ccc1O` please
### Response inactive

### Prompt Do the same for `O=Cc1ccc(OCc2cccc([N+](=O)[O-])c2)cc1` please
### Response inactive

### Prompt Do the same for `O=C(O)C1=C(O)CCN=C1` please
### Response inactive

### Prompt Do the same for CC1=Nc2cc(C)c(C)cc2N2C1=CC1=C(C(=O)c3cc4ccccc4cc3C1=O)C2C (centres undefined) please
### Response inactive

### Prompt Do the same for `CS(=O)(=O)OCc1nnn(-c2ccccc2)c1COS(C)(=O)=O` please
### Response inactive

### Prompt Do the same for CCCCCCCCCCCCCC1CCC(CC)N1 (centres undefined) please
### Response active

### Prompt Do the same for `O=C(/C=C/c1c(-c2ccccc2)[nH]c2ccccc12)c1cccc([N+](=O)[O-])c1` please
### Response inactive

### Prompt Do the same for `Nc1cccc(/C=C(/C(=O)O)c2ccc(Cl)cc2)c1` please
### Response inactive

### Prompt Do the same for `O=NN(CCCl)C(=O)/N=N/C(=O)N(CCCl)N=O` please
### Response inactive

### Prompt Do the same for CC(=O)OCC12CC(c3ccoc3)OC3CCC4C(=O)OC(CC1C)C4(C)C32 (centres undefined) please
### Response inactive

###

- EXPERIMENTAL_PROTOCOL: NCI Yeast Anticancer Drug Screen. Data for the sgs1 mgt1 strain (AID 161);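 note: 0% = growth of cultures given vehicle only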
- SETTINGS: S. cerevisiae sgs1 mgt1 strain, at 50.0 µM, hits give high values
Compounds without any hit were thinned out: in the full panel of roughly 79,000, 15% have a hit. The source made the active and inactive calls. Cut-off read from the data, not from the text of the source: active = growth inhibition above about 70%; inactive = the rest. Where a SMILES comes first, the peptide text is derived from it.
growth inhibition by entry:

### Prompt Item CC(C)CC(N)C(=O)NC(C)C(=O)NC(CC(C)C)C(=O)O (stereo not drawn) (H-Leu-Ala-Leu-OH; configuration not given here) has what recorded growth inhibition?
### Response 10.9% (inactive)

###

- EXPERIMENTAL_PROTOCOL: NCI Yeast Anticancer Drug Screen. Data for the mec2-1 strain (AID 157)
- SETTINGS: S. cerevisiae mec2-1 strain, at 50.0 µM, hits give high values
About 79,000 compounds went through this panel and 15% of them were active in at least one assay; those are over-represented in the sample as a whole.
ATTRIBUTE_MEASURED: growth inhibition (%)
Only the number, expressed in %, is required.

Worked examples follow.
Nc1nc2c(-c3ccc([N+](=O)[O-])cc3)nnn2c2cccc(Cl)c12 ... -15.8
O=C1C(Cl)N(c2c(Cl)cccc2Cl)C1c1c[nH]c2ccccc12 (stereo unspecified) ... -43.6
Nc1nc(N)c(N=Nc2cc(Cl)cc(Cl)c2)c(=O)[nH]1 ... 9.3
NC(=S)N/N=C(\Cc1nc2ccc(Cl)cc2[nH]c1=O)C(=O)Nc1ccc(Cl)cc1 ... 2.35
O=c1cc([O-])[n+](C2OC(CO)C(O)C2O)c2sccn12 (stereo unspecified) ... 9.2

### Prompt Item `O=C(O)c1ccc(Br)cc1` has what recorded growth inhibition?
### Response -6.05
